System: CNS
Assay: Preliminary study similar to Irwin's test in mice: effect on CNS
Assay type: in vivo
Details: 300 mg/kg, 1, 2, 3, 4 and 24 hours
measured.attribute: Convulsions

compound: CCOCCn1c(C2CCN(Cc3ccc(C(C)(C)C)cc3)CC2)nc2ccccc21
test.value: 4/4

compound: COCCn1c(C2CCN(Cc3ccc(C(C)(C)C)cc3)CC2)nc2ccccc21
test.value: 4/4

compound: CN1CCC(=C2c3ccccc3CC(=O)c3sccc32)CC1 [Ketotifene, reference compound]
test.value: --

compound: CC(C)OCCn1c(C2CCN(Cc3ccc(C(C)(C)C)cc3)CC2)nc2ccccc21
test.value: --

Consider the record given below.
Incoming: # get_value(readout='Convulsions', item= CCOCCn1c(C2CCN(CCc3ccc(C(C)(C)C)cc3)CC2)nc2ccccc21 )
Outgoing: --
